- Test system: OVCAR-3 ovarian
- experiment.notes: NCI tumour cell line growth inhibition, 48 h
experimental.readout: TGI

compound: COc1cccc(/C(C#N)=C/c2nc3c(N4CCOCC4)nc(Cl)nc3n2C)c1
reported: 1.92 µM
--
compound: Cc1ccccc1NC(=O)c1cc(-c2ccc([N+](=O)[O-])cc2)nc(=S)[nH]1
reported: > 100 µM
--
compound: O=C(O)c1ccc(NCn2nc(-c3ccccc3O)oc2=S)cc1
reported: > 100 µM
--
compound: [N-]=[N+]=NC(c1cn(C2CC(O)C(CO)O2)c(=O)[nH]c1=O)C(Br)Br (stereo not drawn)
reported: > 100 µM
--
compound: O=C(c1nc2ccc([N+](=O)[O-])cc2[nH]c1=O)C(O)c1ccc2c(c1)OCO2 (stereo not drawn)
reported: > 100 µM
--
compound: O=C(/C=C/C12c3ccccc3C(c3ccccc31)C1C(=O)NC(=O)C12)c1ccc(Cl)cc1Cl (stereo not drawn)
reported: 3.16 µM
--
compound: C#Cc1cccc(N2C(=O)c3c(c(-c4ccccc4)c(-c4ccc(Cc5ccc(-c6c(-c7ccccc7)c7c(c(-c8ccccc8)c6-c6ccccc6)C(=O)N(c6cccc(C#C)c6)C7=O)cc5)cc4)c(-c4ccccc4)c3-c3ccccc3)C2=O)c1
reported: > 100 µM
--
compound: c1ccc2c(c1)c1c(n2CCOCCN2CCCC2)CCCC1
reported: > 100 µM

----------
- Tested on: OVCAR-5 ovarian
- experiment.notes: NCI tumour cell line growth inhibition, 48 h

molecule: CC1/C=C/[C@@]2(C)CCC(C(C)(C)O)C2C(O)C[C@](C)(O)/C=C/C1 (some centres not stated)
TGI: > 100 µM

molecule: CCOC(=O)C(Cc1c[nH]c2c(N(CCO)CCO)cccc12)(NC(C)=O)C(=O)OCC
TGI: > 1000 µM

molecule: O=C1c2ccccc2-[n+]2ccc3c([nH]c4ccccc43)c21
TGI: 1.48 µM

molecule: O=C(CCC(=O)Nc1ccc(Cl)c(Cl)c1)CC(=O)c1ccc(Br)cc1
TGI: > 100 µM

molecule: NS(=O)(=O)c1ccc(-n2nc3c(c2-c2ccc(Cl)cc2)Cc2ccccc2-3)cc1
TGI: 57.4 µM

molecule: COc1ccc(OC)c(NC(=O)CCC/C(CC(=O)c2ccc(O)c(OC)c2)=N\Nc2nnc(C)n2N)c1
TGI: > 100 µM

molecule: CSc1ccc(-c2cc(-c3nc4ccccc4[nH]3)no2)cc1
TGI: > 100 µM

molecule: COc1ccc(/C=C/C(=O)/C=C/c2cc3ccccc3[nH]c2=O)cc1
TGI: 19.9 µM

molecule: NC(=O)N/N=C(/CC1C(=O)Oc2ccccc21)c1ccccc1O (configuration not stated)
TGI: > 100 µM

molecule: Cc1ccc(SC2C(=O)C3CC(OCc4ccccc4)C2(C)C3(C)C)cc1 (configuration not stated)
TGI: > 100 µM

molecule: COc1ccccc1C#Cc1ccccc1C#CCCCCO
TGI: 34.1 µM

molecule: COc1ccc(NC(=O)/C(=C/c2ccccc2)C(C)=O)cc1
TGI: 34.1 µM

molecule: Cc1nc(CC#N)n[nH]1
TGI: > 100 µM

molecule: CS(=O)(=O)OCCN(CCOS(C)(=O)=O)c1ccc(C=Nc2cccc(Cl)c2)cc1
TGI: 17.7 µM

molecule: Cn1c2ccccc2c2c3c(c4c5ccccc5n(C)c4c21)C(=O)NC3=O
TGI: > 100 µM

molecule: CC1=Nc2c(ccc3c2C(=O)c2ccccc2C3=O)NC(c2cccc3c2CCC3)C1 (configuration not stated)
TGI: > 100 µM

molecule: COc1ccc(C2OC(=O)c3ccc4ccccc4c32)c(C)c1 (configuration not stated)
TGI: > 100 µM

molecule: CC(C)(C)c1cc(C(O)(C(F)(F)F)C(F)(F)F)c2c(c1)C(C(F)(F)F)(C(F)(F)F)OC(C)(C(C)(C)C)N2 (configuration not stated)
TGI: > 100 µM

molecule: O=C(/C=C/c1cccc(Oc2ccccc2)c1)NCc1ccc(C(=O)NCc2ccccc2)cc1
TGI: > 100 µM

molecule: Cc1ccc2c(c1)C(=O)c1nc(C)ccc1C2=O
TGI: > 100 µM

molecule: O=C1CC2C(=O)c3ccccc3CC2c2ccccc21 (configuration not stated)
TGI: > 100 µM

molecule: [N-]=[N+]=NC(c1cn(C2CC(O)C(CO)O2)c(=O)[nH]c1=O)C(Br)Br (configuration not stated)
TGI: > 100 µM

molecule: N#Cc1ccccc1C(Cl)(Cl)c1cnccn1
TGI: > 100 µM

molecule: Cc1nc(N)nc2c1CCC(O)S2 (configuration not stated)
TGI: 74.3 µM

molecule: O=C1CC(c2ccccc2)C2(C(=O)NC(=S)NC2=O)C(c2ccccc2)C1 (configuration not stated)
TGI: > 75 µM

molecule: CCCCCCCCCCCCCCCCCC1=NC(C)(C)CN1CC(C)O (configuration not stated)
TGI: 31.7 µM

molecule: CCCCCCCCOC(=O)CC[C@@H](C)[C@H]1CC[C@H]2[C@@H]3[C@H](OC(=O)CCN)C[C@@H]4C[C@H](OC(=O)CCN)CC[C@]4(C)[C@H]3C[C@H](OC(=O)CCN)[C@]12C
TGI: 10.1 µM

molecule: CCOC(=O)c1cc2cc3c4c(c2oc1=O)CCCN4CCC3
TGI: > 100 µM

molecule: COc1ccc(NC(=O)CC2SC(=Nc3ccccc3C)NC2=O)c([N+](=O)[O-])c1 (configuration not stated)
TGI: > 100 µM

molecule: CCC[CH2][Sn]([Cl])([Cl])[CH2]CCC
TGI: 2.89 µM

molecule: O=C(/C=C/c1ccc(-c2ccccc2)cc1)NCc1ccc(C(=O)NCc2ccccc2)cc1
TGI: > 100 µM

molecule: Cc1nn[n-]n1.N.N.N.N.N.[Cl-].[Co+3]
TGI: > 100 µM

molecule: Clc1ccc(C2=NN=C3C(c4ccccc4)=Nc4ccccc4N3C2)cc1
TGI: > 30.6 µM

molecule: CCN(CC)CCCNc1ccc2nc(C)n3c4ccc(O)cc4c(=O)c1c23
TGI: 20.2 µM

molecule: CC(=O)c1c(C)nc(SSc2nc(C)c(C(C)=O)c(-c3ccc(Cl)cc3)c2C#N)c(C#N)c1-c1ccc(Cl)cc1
TGI: > 150 µg/mL

molecule: Nc1nc(Cl)c(N)c(NCC2(CO)CC2)n1
TGI: > 100 µM

molecule: C=CCC1CC(n2cc(C)c(=O)[nH]c2=O)OC1CO[Si](C)(C)C(C)(C)C (configuration not stated)
TGI: 31.7 µM

molecule: CC(=O)Nc1ccc(C(=O)NN2C(=O)C(Cl)/C2=C/c2ccco2)cc1 (configuration not stated)
TGI: > 100 µM

molecule: O=c1cc(CO)oc2c3c(cc(O)c12)OCC(COC1OC(CO)C(O)C(O)C1O)=CC3 (configuration not stated)
TGI: > 100 µM

molecule: O=S(=O)(NCCNc1nccc(-c2c(-c3ccc(F)c(O)c3)nc3sccn23)n1)c1ccc(F)cc1
TGI: 85.7 µM

molecule: Nc1nonc1-c1nc2cnccc2n1C1CC1
TGI: > 25 µM

molecule: Cc1c2c3ccccc3nc-2n(C)c2ccccc12
TGI: 8.27 µM

These data points were gathered from PubChem BioAssay (NCI).
